# System: Human liver cancer cell line HepG2 cells
# TEST_PROTOCOL: Cellular viability, WST-8 assay, without or with human liver microsomes
# Assay type: cell-based
# CONDITION: at 100 μM, HepG2, with human liver microsomes
QUANTITY: Cellular viability (%) (+) microsome

INSERT INTO assay_data (molecule, quantity, recorded_measurement) VALUES
  ('CCOC(=O)c1nc(-c2cccc(Cl)c2)oc1-c1ccccc1 [Compound 75]', 'Cellular viability (%) (+) microsome', '100 at %'),
  ('CCOC(=O)c1nc(-c2ccc(C(F)(F)F)cc2)oc1-c1cccc(C#N)c1 [Compound 55]', 'Cellular viability (%) (+) microsome', '91 at %'),
  ('CN(C)CCNC(=O)c1nc(-c2ccc(C#N)cc2)oc1-c1ccccc1 [Compound 249]', 'Cellular viability (%) (+) microsome', '50 at %'),
  ('CCOC(=O)c1nc(-c2ccc(C(F)(F)F)cc2)oc1-c1ccccc1OC [Compound 44]', 'Cellular viability (%) (+) microsome', '99 at %');

GET /values?readout=Cellular viability (%) (+) microsome&system=Human liver cancer cell line HepG2 cells&item= CCOC(=O)c1nc(-c2ccc(Cl)c(C(F)(F)F)c2)oc1-c1ccccc1 [Compound 98]
90 at %

GET /values?readout=Cellular viability (%) (+) microsome&system=Human liver cancer cell line HepG2 cells&item= CSc1ccc(-c2nc(C(=O)NCCN3CCN(C)CC3)c(-c3ccccc3)o2)cc1 [Compound 272]
49 at %

GET /values?readout=Cellular viability (%) (+) microsome&system=Human liver cancer cell line HepG2 cells&item= CN(C)CCNC(=O)c1nc(-c2ccc([N+](=O)[O-])cc2)oc1-c1ccccc1[N+](=O)[O-] [Compound 277]
49 at %

GET /values?readout=Cellular viability (%) (+) microsome&system=Human liver cancer cell line HepG2 cells&item= CN(C)CCNC(=O)c1nc(-c2cccc(Cl)c2)oc1-c1ccccc1 [Compound 240]
50 at %

GET /values?readout=Cellular viability (%) (+) microsome&system=Human liver cancer cell line HepG2 cells&item= CN1CCN(CCNC(=O)c2nc(-c3cc(F)cc(F)c3)oc2-c2ccccc2[N+](=O)[O-])CC1 [Compound 238]
53 at %

GET /values?readout=Cellular viability (%) (+) microsome&system=Human liver cancer cell line HepG2 cells&item= CC(=O)N1CCN(CCNC(=O)c2nc(-c3ccc(C(F)(F)F)cc3)oc2-c2ccccc2[N+](=O)[O-])CC1 [Compound 284]
49 at %

GET /values?readout=Cellular viability (%) (+) microsome&system=Human liver cancer cell line HepG2 cells&item= CCOC(=O)c1nc(-c2ccc(C(F)(F)F)cc2)oc1-c1ccccc1OC(F)(F)F [Compound 52]
97 at %

GET /values?readout=Cellular viability (%) (+) microsome&system=Human liver cancer cell line HepG2 cells&item= CSc1ccc(-c2nc(C(=O)NCCN(C)C)c(-c3ccccc3)o2)cc1 [Compound 271]
52 at %

GET /values?readout=Cellular viability (%) (+) microsome&system=Human liver cancer cell line HepG2 cells&item= CN(C)CCNC(=O)c1nc(-c2ccc(Cl)cc2)oc1-c1ccccc1[N+](=O)[O-] [Compound 246]
52 at %

GET /values?readout=Cellular viability (%) (+) microsome&system=Human liver cancer cell line HepG2 cells&item= COc1ccc(-c2nc(C(=O)NCCN(C)C)c(-c3ccc([N+](=O)[O-])cc3)o2)cc1 [Compound 217]
34 at %

GET /values?readout=Cellular viability (%) (+) microsome&system=Human liver cancer cell line HepG2 cells&item= CCOC(=O)c1nc(-c2ccc(C(F)(F)F)cc2)oc1-c1ccc([N+](=O)[O-])cc1 [Compound 34]
85 at %

GET /values?readout=Cellular viability (%) (+) microsome&system=Human liver cancer cell line HepG2 cells&item= CCOC(=O)c1nc(-c2ccc(C(F)(F)F)cc2)oc1-c1cccc([N+](=O)[O-])c1 [Compound 33]
68 at %
